src = the supplement of paper PMC10724198

Each record here notes measured protein stability index.
Tested on: Saccharomyces cerevisiae;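 also: PSI is a weighted mean of sequencing reads over stability bins, variants kept only with over 10 reads, mCherry proximal and sfGFP distal, peptide attached via GGGS linker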
protocol_notes: protein stability index of tFT-peptide fusion (C-terminal peptide) (PSI (0-1 scale)); higher = more stable (slower turnover)
condition_details: genetic background: doa10 deletion; temperature: 30 C
parameter: protein stability index

>>> print(df.to_string())
   input_sequence  experimental_value
0    GGVWVLGVAVVW               0.207
1    RWCLELLWITSC              0.0892
2    VVNFLVFRFFCI               0.216
3    CLLLFFIFLLFL                0.49
4    QLIDVGLLNCAA               0.412
5    SPSRAGQHLYYP               0.636
6    PPPYPPPPARSL               0.682
7    FLSVGFSCSFVC               0.375
8    WHFPCPPLPCPV               0.298
9    LWGVGRQRNIAS               0.291
